# TEST_DESCRIPTION: Cytotoxicity against Mycobacterium bovis Bacillus Calmette-Guerin infected mouse J774 cells assessed as cell viability at 50 ug/ml after 48 hrs by MTT assay
# Assay type: cell-based
# SETTINGS: read-out: Activity
OBSERVATION_TYPE: viability at 48 h, 50 ug/ml

{"columns": ["SMILES", "OBSERVATION_TYPE", "REPORTED_VALUE"],
 "data": [
  ["O=C(N/N=C/c1ccccc1[N+](=O)[O-])c1cnccn1", "viability at 48 h, 50 ug/ml", "100%"],
  ["COc1ccccc1/C=N/NC(=O)c1cnccn1", "viability at 48 h, 50 ug/ml", "87%"],
  ["N#Cc1ccc(/C=N/NC(=O)c2cnccn2)cc1", "viability at 48 h, 50 ug/ml", "100%"],
  ["O=C(N/N=C/c1ccccc1Br)c1cnccn1", "viability at 48 h, 50 ug/ml", "73%"],
  ["COc1cccc(/C=N/NC(=O)c2cnccn2)c1", "viability at 48 h, 50 ug/ml", "100%"],
  ["O=C(N/N=C/c1ccc(O)cc1)c1cnccn1", "viability at 48 h, 50 ug/ml", "100%"]
]}
